Tested on: K12877-001-R-J1-PDC complex spheroid viability;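 further: spheroids exposed to agents for one week before readout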
Assay: Anticancer human tumor K12877-001-R-J1-PDC patient-derived lung adenocarcinoma cell line growth inhibition [RAS]
Conditions: curve of first compound; second compound 0.000949 µM
Source text: RAS pathway inhibitors in Combinations in Complex Spheroids A high-throughput screen of multi-cell type tumor spheroids was designed to identify active combinations of RAS pathway inhibitors and targeted small molecules. Complex spheroids include a stromal component modeled by human endothelial cells (HUVEC) and fibroblasts modeled by human mesenchymal stem cells (MSCs). […] Compounds. […] If the clinical Cmax for an agent had not been determined, the highest concentration tested was 10 microM. […]
Collected IC50 values appear next to each entry.
endpointLabel: IC50

{"molecule": "CC1(O)CCCC1n1c(=O)c(C(F)F)cc2cnc(NC3CCN(S(C)(=O)=O)CC3)nc21 (stereo not drawn) + CCn1c(-c2cccnc2C(C)OC)c2c3cc(ccc31)N1CCOC(CC(NC(=O)C(C(C)C)N(C)C(=O)C3(F)CCN(C(=O)C#CC(C)(C)N(C)C)CC3)C(=O)N3CCCC(N3)C(=O)OCC(C)(C)C2)C1", "endpointLabel": "IC50", "testResult": "202 nM"}
{"molecule": "C[C@@H](NC(=O)c1ncnc(N)c1Cl)c1ncc(C(=O)Nc2cc(C(F)(F)F)c(Cl)cn2)s1 + CCn1c(-c2cccnc2C(C)OC)c2c3cc(ccc31)N1CCOC(CC(NC(=O)C(C(C)C)N(C)C(=O)C3(F)CCN(C(=O)C#CC(C)(C)N(C)C)CC3)C(=O)N3CCCC(N3)C(=O)OCC(C)(C)C2)C1", "endpointLabel": "IC50", "testResult": "> 10000 nM"}
{"molecule": "C=CC(=O)Nc1cc(Nc2nccc(-c3cn(C)c4ccccc34)n2)c(OC)cc1N(C)CCN(C)C + CCn1c(-c2cccnc2C(C)OC)c2c3cc(ccc31)N1CCOC(CC(NC(=O)C(C(C)C)N(C)C(=O)C3(F)CCN(C(=O)C#CC(C)(C)N(C)C)CC3)C(=O)N3CCCC(N3)C(=O)OCC(C)(C)C2)C1", "endpointLabel": "IC50", "testResult": "> 1000 nM"}
